Entry source: patent US20220380801A1

# studySystem: HCV NS3/4A PR (S139A) (Hepatitis C virus subtype 1a, UniProt A8DG50, A1066T/I1043Q/I1044E/L1039E/L1040E/L1047Q/S1165A, form not given)
# protocolNotes: Biacore 8K binding kinetics of PRSIM binding molecules
# measurementContext: 10 nM simeprevir present
Below: a set of entries, each annotated with reported kd.
readoutLabel: kd (s⁻¹)

{"columns": ["molecule", "assayValue"],
 "data": [
  ["PRSIM_67: scFv PRSIM binding molecule, SEQ ID NO: 13 (protein, PRSIM_67) scFv: EVQLVQSGAEVKKPGAAVRISCKTSGYVFTSYYVHWVRQAPGQGLEWMGVINPSGGNTNYAQKFQDRVTMTRDTSTTTVYMELSSLMFDDTAVYYCAKRDYGGPLANWGRGTLVTVSSGGGGSGGGGSGGGGSALSYELTQPPSVSEAPRQRVTISCSGSSSNIGNNAVNWYQQLPGKAPKLLIFYDDLLPSGVSDRFSGSKSGTSASLAISGLQSEDEADYYCAAWDDSLNGLVFGTGTKLTVL", 0.226],
  ["PRSIM_47: Tn3 PRSIM binding molecule, SEQ ID NO: 9 (protein, PRSIM_47) RLDAPSQIEVKDVTDTTALITWSRPGVSIWYFELTYGIKDVPGDRTTIKLDYRSYYYSIGNLKPDTEYEVSLISGSYGLVGVRASNPAKITFKTGL", 51.2],
  ["PRSIM_75: scFv PRSIM binding molecule, SEQ ID NO: 15 (protein, PRSIM_75) scFv: EVQLVQSGAEVKKPGSSVKVSCKASGGSFNSYTLDWVRQAPGQGLEWMGGIIPVFGSPNYGQKFQGRVTITADESTSTAYMELSSLKSDDTAVYYCARGLVYQPLDSWGRGTLVTVSSGGGGSGGGGSGGGGSAQAVLTQPSSASGTPGQRVTISCSGSSSNIGSYTVNWYQQFPGTAPKLLIYSNTQRPSGVPDRFSGSKSGTSASLAISGLQSEDEADYYCAAWDDSLNGWVFGGGTKVTVL", 0.00267]
]}
